- assayed-target: Folylpolyglutamate synthase, mitochondrial (Mus musculus, UniProt P48760)
- Sequence (P48760 whole entry): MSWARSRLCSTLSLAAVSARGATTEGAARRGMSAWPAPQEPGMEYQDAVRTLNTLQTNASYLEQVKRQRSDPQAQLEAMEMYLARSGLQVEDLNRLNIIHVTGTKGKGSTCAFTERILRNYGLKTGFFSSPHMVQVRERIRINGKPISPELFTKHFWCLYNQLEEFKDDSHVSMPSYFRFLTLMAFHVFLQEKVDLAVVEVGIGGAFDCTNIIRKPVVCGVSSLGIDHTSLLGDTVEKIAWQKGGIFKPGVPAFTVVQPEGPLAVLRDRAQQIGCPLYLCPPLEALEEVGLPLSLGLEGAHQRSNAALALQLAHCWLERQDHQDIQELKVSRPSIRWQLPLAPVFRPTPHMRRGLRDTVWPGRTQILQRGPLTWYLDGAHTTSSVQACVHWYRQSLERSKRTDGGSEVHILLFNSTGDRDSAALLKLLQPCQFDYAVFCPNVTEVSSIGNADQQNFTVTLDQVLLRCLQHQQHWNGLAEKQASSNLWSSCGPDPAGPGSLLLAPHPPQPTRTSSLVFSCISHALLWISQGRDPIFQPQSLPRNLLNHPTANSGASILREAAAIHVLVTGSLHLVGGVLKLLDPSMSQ
- protocol-notes: Inhibitory constant against purified Folyl-polyglutamate synthase obtained from mouse
quantity: pKi
A value of pKi is the negative decimal logarithm of a concentration given in moles per litre.

# input Give its pKi value. Item: NCCC[C@H](NC(=O)c1ccc(NCc2cnc3nc(N)nc(N)c3n2)cc1)C(=O)O
# output 6.52

* * *

- Test system: L1210
- protocol-notes: Mean survival of mice infected with L1210 leukemia after an intraperitoneal dose of 80 mg/kg for 9 days
- Type: functional, Mus musculus
quantity: Survival (days)
Express it in days; write the number only.

# input Entry under review: CN(Cc1cnc2nc(N)nc(N)c2n1)c1ccc(C(=O)NC(CCCCCCC(=O)O)C(=O)O)cc1 (stereo not given) . Reported Survival?
# output 12.6

# input // Survival lookup, key: CN(Cc1cnc2nc(N)nc(N)c2n1)c1ccc(C(=O)NC(CCCCCCCCCCC(=O)O)C(=O)O)cc1 (stereo not given)
# output 10

# input Requested read-out: Survival. Entry: CN(Cc1cnc2nc(N)nc(N)c2n1)c1ccc(C(=O)NC(CCCCCCCCCC(=O)O)C(=O)O)cc1 (stereo not given)
# output 15.2

# input // lookup Survival for CN(Cc1cnc2nc(N)nc(N)c2n1)c1ccc(C(=O)NC(CCCCCCCCC(=O)O)C(=O)O)cc1 (stereo not given)
# output 15.2

# input Query (compound): CN(Cc1cnc2nc(N)nc(N)c2n1)c1ccc(C(=O)NC(CCCCCCCC(=O)O)C(=O)O)cc1 (stereo not given) ; field requested: Survival
# output 15.2
